# TESTED_SYSTEM: Epidermal growth factor receptor (Homo sapiens)
# Sequence (P00533 whole entry): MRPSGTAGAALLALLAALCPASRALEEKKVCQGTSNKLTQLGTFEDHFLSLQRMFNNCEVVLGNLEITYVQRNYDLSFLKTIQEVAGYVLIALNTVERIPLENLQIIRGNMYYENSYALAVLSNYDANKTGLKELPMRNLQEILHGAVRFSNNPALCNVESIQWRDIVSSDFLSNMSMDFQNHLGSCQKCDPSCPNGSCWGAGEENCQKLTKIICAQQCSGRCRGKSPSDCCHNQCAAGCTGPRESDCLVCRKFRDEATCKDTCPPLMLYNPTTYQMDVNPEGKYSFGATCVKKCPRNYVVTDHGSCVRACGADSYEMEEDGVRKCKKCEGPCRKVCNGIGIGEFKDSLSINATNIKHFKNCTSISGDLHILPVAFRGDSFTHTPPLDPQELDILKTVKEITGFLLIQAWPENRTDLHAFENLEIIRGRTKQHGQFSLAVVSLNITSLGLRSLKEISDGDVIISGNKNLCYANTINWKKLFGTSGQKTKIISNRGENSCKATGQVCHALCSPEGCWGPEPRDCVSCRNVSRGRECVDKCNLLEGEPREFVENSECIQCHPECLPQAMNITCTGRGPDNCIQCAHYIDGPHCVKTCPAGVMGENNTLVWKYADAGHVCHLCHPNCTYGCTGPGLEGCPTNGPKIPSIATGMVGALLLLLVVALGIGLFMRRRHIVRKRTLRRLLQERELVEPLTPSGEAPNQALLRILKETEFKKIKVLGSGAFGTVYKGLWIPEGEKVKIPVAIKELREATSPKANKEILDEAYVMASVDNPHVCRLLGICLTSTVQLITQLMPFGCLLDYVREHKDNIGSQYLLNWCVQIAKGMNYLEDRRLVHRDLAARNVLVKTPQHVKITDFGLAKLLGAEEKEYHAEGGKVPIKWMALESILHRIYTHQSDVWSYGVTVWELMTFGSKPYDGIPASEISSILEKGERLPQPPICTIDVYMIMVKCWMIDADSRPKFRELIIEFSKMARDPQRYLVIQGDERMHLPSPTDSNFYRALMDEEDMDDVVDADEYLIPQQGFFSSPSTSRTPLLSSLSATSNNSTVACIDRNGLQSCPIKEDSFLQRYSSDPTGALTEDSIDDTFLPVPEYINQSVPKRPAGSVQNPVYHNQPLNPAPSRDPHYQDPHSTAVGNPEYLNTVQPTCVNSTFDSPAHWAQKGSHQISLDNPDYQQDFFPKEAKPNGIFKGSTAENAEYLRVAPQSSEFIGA
# EXPERIMENT_SUMMARY: Inhibition of recombinant human EGFR using poly (Glu,Tyr)4:1 as substrate after 60 mins by ELISA
REPORTED_ENDPOINT: IC50

IC50 in this record for `Cn1cc(-c2cnc(Nc3cccc(Cn4nc(-c5cnn(C)c5)ccc4=O)c3)nc2)cn1` : > 1000 nM

###

# EXPERIMENT_SUMMARY: Antiproliferative activity against human EBC1 cells after 72 hrs by SRB assay
# TEST_PARAMETERS: EBC-1, 72 h
pIC50: −log10 of the molar value.
# pIC50 listing for each entry below

1) CN1CCN(Cc2cnc(Nc3cccc(Cn4nc(-c5cnn(C)c5)ccc4=O)c3)nc2)CC1 ... < 6.70
2) CN1CCC(n2cc(-c3cnc(Nc4cccc(Cn5nc(-c6cnn(C)c6)ccc5=O)c4)nc3)cn2)CC1 ... 7.19
3) Cn1cc(-c2ccc(=O)n(Cc3cccc(Nc4ncccn4)c3)n2)cn1 ... < 6.70
4) Cn1cc(-c2ccc(=O)n(Cc3cccc(Nc4ncc(-c5cncs5)cn4)c3)n2)cn1 ... < 6.70
5) Cn1cc(-c2ccc(=O)n(Cc3cccc(Nc4ncn(C)n4)c3)n2)cn1 ... < 6.70

The reported value for `Cn1cc(-c2cnc(Nc3cccc(Cn4nc(-c5cnn(C)c5)ccc4=O)c3)nc2)cn1` in terms of pIC50 is 7.51

Note to self: pIC50 recorded for `Cn1cc(-c2cnc(Nc3cccc(Cn4nc(-c5cccc(S(C)(=O)=O)c5)ccc4=O)c3)nc2)cn1` was < 6.70

###

# TESTED_SYSTEM: Fibroblast growth factor receptor 1 (Homo sapiens, UniProt P11362)
# EXPERIMENT_SUMMARY: Inhibition of recombinant human FGFR1 using poly (Glu,Tyr)4:1 as substrate after 60 mins by ELISA
REPORTED_ENDPOINT: IC50

Data point: `Cn1cc(-c2cnc(Nc3cccc(Cn4nc(-c5cnn(C)c5)ccc4=O)c3)nc2)cn1` ; IC50 = > 1000 nM

###

# TESTED_SYSTEM: Vascular endothelial growth factor receptor 2 (Homo sapiens, UniProt P35968)
# Sequence (P35968 whole entry): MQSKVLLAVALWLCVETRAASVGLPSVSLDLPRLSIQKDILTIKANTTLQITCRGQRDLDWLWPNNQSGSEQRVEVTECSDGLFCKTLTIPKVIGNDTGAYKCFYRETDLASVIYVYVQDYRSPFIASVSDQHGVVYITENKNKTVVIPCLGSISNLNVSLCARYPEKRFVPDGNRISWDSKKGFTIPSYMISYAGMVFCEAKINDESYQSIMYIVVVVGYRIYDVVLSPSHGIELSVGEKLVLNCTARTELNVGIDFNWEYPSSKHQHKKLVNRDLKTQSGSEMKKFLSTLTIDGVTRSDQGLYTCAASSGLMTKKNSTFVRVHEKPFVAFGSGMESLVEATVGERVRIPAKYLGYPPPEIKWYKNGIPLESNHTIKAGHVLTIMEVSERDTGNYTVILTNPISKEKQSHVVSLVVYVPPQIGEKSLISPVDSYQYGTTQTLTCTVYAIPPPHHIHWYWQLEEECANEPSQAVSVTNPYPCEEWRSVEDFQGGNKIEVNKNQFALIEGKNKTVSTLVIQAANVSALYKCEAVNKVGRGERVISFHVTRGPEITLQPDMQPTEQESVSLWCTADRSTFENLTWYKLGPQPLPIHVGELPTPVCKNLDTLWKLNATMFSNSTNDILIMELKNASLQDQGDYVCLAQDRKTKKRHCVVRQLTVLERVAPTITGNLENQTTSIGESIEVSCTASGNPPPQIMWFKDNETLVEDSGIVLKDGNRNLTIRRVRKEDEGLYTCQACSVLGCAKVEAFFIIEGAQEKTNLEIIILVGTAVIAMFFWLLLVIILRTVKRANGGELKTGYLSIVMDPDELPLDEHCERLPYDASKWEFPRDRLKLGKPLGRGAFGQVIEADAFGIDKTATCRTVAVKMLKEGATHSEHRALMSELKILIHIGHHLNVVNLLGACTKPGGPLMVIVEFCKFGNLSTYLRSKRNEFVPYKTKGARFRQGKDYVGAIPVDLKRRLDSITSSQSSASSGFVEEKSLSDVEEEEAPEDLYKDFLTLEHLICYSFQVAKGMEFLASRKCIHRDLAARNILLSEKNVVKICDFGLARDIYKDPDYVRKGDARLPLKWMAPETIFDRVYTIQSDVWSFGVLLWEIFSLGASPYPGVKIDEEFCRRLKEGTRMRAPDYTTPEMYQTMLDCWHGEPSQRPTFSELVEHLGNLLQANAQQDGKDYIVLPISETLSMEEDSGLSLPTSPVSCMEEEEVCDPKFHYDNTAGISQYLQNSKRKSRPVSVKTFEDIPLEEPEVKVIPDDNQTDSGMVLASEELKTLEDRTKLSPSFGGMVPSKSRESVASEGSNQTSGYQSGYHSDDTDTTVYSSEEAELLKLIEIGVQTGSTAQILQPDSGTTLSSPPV
# EXPERIMENT_SUMMARY: Inhibition of recombinant human KDR using poly (Glu,Tyr)4:1 as substrate after 60 mins by ELISA
REPORTED_ENDPOINT: IC50

Recorded IC50 (compound `Cn1cc(-c2cnc(Nc3cccc(Cn4nc(-c5cnn(C)c5)ccc4=O)c3)nc2)cn1` ): > 1000 nM

###

# TESTED_SYSTEM: Tyrosine-protein kinase receptor UFO (Homo sapiens, UniProt P30530)
# Sequence (P30530 whole entry): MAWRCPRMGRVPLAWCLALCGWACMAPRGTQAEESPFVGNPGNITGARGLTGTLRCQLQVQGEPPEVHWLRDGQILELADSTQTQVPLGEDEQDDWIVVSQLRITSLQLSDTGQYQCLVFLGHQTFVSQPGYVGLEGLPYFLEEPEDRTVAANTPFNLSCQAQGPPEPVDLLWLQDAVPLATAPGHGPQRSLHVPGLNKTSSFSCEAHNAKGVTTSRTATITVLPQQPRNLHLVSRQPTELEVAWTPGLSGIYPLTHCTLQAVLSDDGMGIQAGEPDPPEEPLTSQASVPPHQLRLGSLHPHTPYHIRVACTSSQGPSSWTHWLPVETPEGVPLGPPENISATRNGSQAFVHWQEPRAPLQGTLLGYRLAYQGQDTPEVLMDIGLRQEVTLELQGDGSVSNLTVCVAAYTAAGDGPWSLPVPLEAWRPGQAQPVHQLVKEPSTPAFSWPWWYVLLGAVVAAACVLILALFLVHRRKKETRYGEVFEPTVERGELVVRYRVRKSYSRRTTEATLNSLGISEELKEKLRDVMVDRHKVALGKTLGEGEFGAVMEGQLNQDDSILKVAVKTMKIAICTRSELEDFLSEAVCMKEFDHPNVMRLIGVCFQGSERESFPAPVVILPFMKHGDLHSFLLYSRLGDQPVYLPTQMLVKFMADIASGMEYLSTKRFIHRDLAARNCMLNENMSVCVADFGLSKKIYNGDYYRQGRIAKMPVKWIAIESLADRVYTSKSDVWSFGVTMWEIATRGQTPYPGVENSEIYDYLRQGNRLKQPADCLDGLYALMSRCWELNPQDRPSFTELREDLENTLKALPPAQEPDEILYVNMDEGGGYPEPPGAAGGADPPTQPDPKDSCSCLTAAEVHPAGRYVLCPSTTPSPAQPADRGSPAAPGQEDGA
# EXPERIMENT_SUMMARY: Inhibition of recombinant human Axl using poly (Glu,Tyr)4:1 as substrate after 60 mins by ELISA
REPORTED_ENDPOINT: IC50

Value (IC50, Tyrosine-protein kinase receptor UFO (Homo sapiens, UniProt P30530)) for record `Cn1cc(-c2cnc(Nc3cccc(Cn4nc(-c5cnn(C)c5)ccc4=O)c3)nc2)cn1` = > 1000 nM

###

# EXPERIMENT_SUMMARY: Solubility of compound in TRIS buffer by nephelometric analysis in presence of 0.1% BSA
# Format: physicochemical
# TEST_PARAMETERS: TRIS buffer with 0.1% BSA
REPORTED_ENDPOINT: solubility kinetic (µM)

(a) CNC(=O)c1ccc(-c2ccc(=O)n(Cc3cccc(Nc4ncc(-c5cnn(C)c5)cn4)c3)n2)cc1F
(b) Cn1cc(-c2cnc(Nc3cccc(Cn4nc(-c5cnn(C)c5)ccc4=O)c3)nc2)cn1
Ask: // select label with min value of measured solubility kinetic from [ a , b ] Returns: label corresponding to the selected item.
Result: a

###

# TESTED_SYSTEM: Tyrosine-protein kinase ABL1 (Homo sapiens, UniProt P00519)
# EXPERIMENT_SUMMARY: Inhibition of recombinant human ABL using poly (Glu,Tyr)4:1 as substrate after 60 mins by ELISA
pIC50: −log10 of the molar value.
REPORTED_ENDPOINT: pIC50

`Cn1cc(-c2cnc(Nc3cccc(Cn4nc(-c5cnn(C)c5)ccc4=O)c3)nc2)cn1` on Tyrosine-protein kinase ABL1 (Homo sapiens, UniProt P00519) gives pIC50 = < 6.00

###

# EXPERIMENT_SUMMARY: AUC (0 to 8 hrs) in mouse plasma at 10 mg/kg, po
# Assay type: ADME, organism-based
# Parameters: dose 10 mg/kg, time < 8 hr, route oral
REPORTED_ENDPOINT: AUC(0-t) at 8 h (ng·h/mL)
Could you give me the number in ng·h/mL? Just the number is fine.

get_value(item= `Cn1cc(-c2cnc(Nc3cccc(Cn4nc(-c5cnn(C)c5)ccc4=O)c3)nc2)cn1` , readout=AUC(0-t) at 8 h) returns 1750

###

# EXPERIMENT_SUMMARY: Efflux ratio of apparent permeability from basolateral to apical side over apical to basolateral side in human Caco2 cells after 35 to 95 mins by LC-MS/MS analysis
# Format: ADME, cell-based
# TEST_PARAMETERS: Caco-2
REPORTED_ENDPOINT: efflux ratio
Respond using a number only.

// `Cn1cc(-c2cnc(Nc3cccc(Cn4nc(-c5cnn(C)c5)ccc4=O)c3)nc2)cn1` : efflux ratio value = 1.3

###

# TESTED_SYSTEM: Tyrosine-protein kinase receptor TYRO3 (Homo sapiens)
# Sequence (Q06418 whole entry): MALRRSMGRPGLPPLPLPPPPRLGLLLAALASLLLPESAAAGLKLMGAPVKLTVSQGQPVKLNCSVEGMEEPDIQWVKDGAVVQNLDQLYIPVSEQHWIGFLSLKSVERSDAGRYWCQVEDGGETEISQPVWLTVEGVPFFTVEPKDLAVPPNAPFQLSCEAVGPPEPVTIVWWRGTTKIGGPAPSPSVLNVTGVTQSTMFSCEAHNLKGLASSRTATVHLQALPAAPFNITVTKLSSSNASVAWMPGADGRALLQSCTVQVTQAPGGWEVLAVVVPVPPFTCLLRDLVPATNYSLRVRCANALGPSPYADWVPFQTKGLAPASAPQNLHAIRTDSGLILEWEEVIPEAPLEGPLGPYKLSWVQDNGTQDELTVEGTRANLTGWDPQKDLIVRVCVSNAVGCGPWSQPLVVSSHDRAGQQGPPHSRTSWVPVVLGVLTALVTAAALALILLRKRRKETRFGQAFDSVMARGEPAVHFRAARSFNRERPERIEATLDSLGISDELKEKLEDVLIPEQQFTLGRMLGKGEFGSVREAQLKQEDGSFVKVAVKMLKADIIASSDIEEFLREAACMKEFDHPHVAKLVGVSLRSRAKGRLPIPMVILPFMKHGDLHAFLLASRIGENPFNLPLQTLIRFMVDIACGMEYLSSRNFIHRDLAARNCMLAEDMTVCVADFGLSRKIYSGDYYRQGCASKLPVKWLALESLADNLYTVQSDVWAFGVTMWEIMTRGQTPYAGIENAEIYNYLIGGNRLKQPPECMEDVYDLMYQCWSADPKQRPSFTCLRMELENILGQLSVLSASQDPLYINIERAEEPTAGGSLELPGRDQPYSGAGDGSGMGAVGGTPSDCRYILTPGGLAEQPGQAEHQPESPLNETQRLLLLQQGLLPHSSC
# EXPERIMENT_SUMMARY: Inhibition of recombinant human TyrO3 using poly (Glu,Tyr)4:1 as substrate after 60 mins by ELISA
pIC50: −log10 of the molar value.
REPORTED_ENDPOINT: pIC50

Entry `Cn1cc(-c2cnc(Nc3cccc(Cn4nc(-c5cnn(C)c5)ccc4=O)c3)nc2)cn1` ; pIC50 = < 6.00

###

# EXPERIMENT_SUMMARY: Solubility of compound in HBSS/HEPES buffer at pH 7.4 by nephelometric analysis in presence of 0.1% BSA
# Assay type: physicochemical
# TEST_PARAMETERS: HBSS/HEPES buffer with 0.1% BSA
REPORTED_ENDPOINT: solubility kinetic (µM)

(I) CNC(=O)c1ccc(-c2ccc(=O)n(Cc3cccc(Nc4ncc(-c5cnn(C)c5)cn4)c3)n2)cc1F
(II) Cn1cc(-c2cnc(Nc3cccc(Cn4nc(-c5cnn(C)c5)ccc4=O)c3)nc2)cn1
Ask: Please let me know which one, I or II , has a lower measured solubility kinetic value. // return label of chosen record
Result: I

###

# TESTED_SYSTEM: Receptor-type tyrosine-protein kinase FLT3 (Homo sapiens, UniProt P36888)
# EXPERIMENT_SUMMARY: Inhibition of recombinant human Flt-3 using poly (Glu,Tyr)4:1 as substrate after 60 mins by ELISA
pIC50: −log10 of the molar value.
REPORTED_ENDPOINT: pIC50

pIC50 recorded for this molecule, `Cn1cc(-c2cnc(Nc3cccc(Cn4nc(-c5cnn(C)c5)ccc4=O)c3)nc2)cn1` , is < 6.00

###

# TESTED_SYSTEM: Macrophage-stimulating protein receptor (Homo sapiens)
# EXPERIMENT_SUMMARY: Inhibition of recombinant human Ron using poly (Glu,Tyr)4:1 as substrate after 60 mins by ELISA
pIC50: −log10 of the molar value.
REPORTED_ENDPOINT: pIC50

Lookup result for `Cn1cc(-c2cnc(Nc3cccc(Cn4nc(-c5cnn(C)c5)ccc4=O)c3)nc2)cn1` ; measured pIC50: < 6.00
